Assay: NCI Yeast Anticancer Drug Screen. Data for the rad50 strain (AID 155);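 also: 0% = growth of vehicle-only cultures of the same strain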
Conditions: S. cerevisiae rad50 strain growth inhibition; at 50.0 µM
About 79,000 compounds went through this panel and 15% of them were active in at least one assay; those are over-represented in the sample as a whole. Activity calls are given as the source filed them. Rule as the data show it: active = growth inhibition above about 70%; inactive = the rest.
Give your call using only these classes: active, inactive

CC(=O)C1(O)CCC2(O)C3(O)CC=C4CC(O)CCC4(C)C3CC(OC(=O)c3ccc(O)cc3)C12C (configuration not stated) | inactive

Please indicate how the test categorized O=S(=O)(N=S(CCCl)CCCl)c1ccccc1 . inactive

Same thing, different compound: Cc1cc[n+](CCc2ccccc2)cc1 inactive

Entry to check: COc1ccc2c(c1O)[C@@]13CCCC=C1[C@@H](C2)[N+](C)(C)CC3 inactive

Continue with COC(=O)CCSP(=S)(Oc1ccccc1)Oc1ccccc1 inactive

Cool, now [CH3][Sn]([Cl])([Cl])[c]1ccccc1 inactive

Same for CCP(=S)(CC)P(=S)(CC)CC inactive

Same thing, different compound: CC(C)C(O)(C(=O)OCC1=CCN2CCC(O)C12)C(C)O (configuration not stated) inactive

Try C[Se]c1ncnc2c1c(C#N)cn2C1OC(CO)C(O)C1O (configuration not stated) next. inactive

Same thing, different compound: O=S(=O)(c1ccc(O)cc1)c1ccccc1O inactive

Continue with Cc1cc(Cl)ccc1O inactive

* * *

Experiment: NCI Yeast Anticancer Drug Screen. Data for the sgs1 mgt1 strain (AID 161);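 also: 0% = growth of cultures given vehicle only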
Conditions: S. cerevisiae sgs1 mgt1 strain, at 50.0 µM, hits give high values
This is part of a sample that, as a whole, favours compounds with a hit. Of some 79,000 tested, about 15% had one in any assay.
READOUT_KIND: growth inhibition (%)
Supply the numeric figure in %, leaving out any unit text.

Some solved entries appear below for comparison.
CNC(=O)O/N=C(\SC)C(=O)N(C)C | -5.05
CCCCCCN(CCCCCC)C1C=CCCC1 (configuration not stated) | 0.25
CCOc1cc(OCC)c(OCC)cc1/C=C/[N+](=O)[O-] | 93.7
Nc1ccc2c(c1)Cc1cc(N)ccc1-2 | 57

Quick one: growth inhibition for CN1CCC2(CC1)C(C#N)C(=O)NC(=O)C2C#N (configuration not stated) ? 11.7

Note, next up: CNC(=O)Oc1cc(C)cc(C(C)C)c1 1.6

Now consider Cn1cnnc1N and answer again. 6.3

* * *

Assay: NCI Yeast Anticancer Drug Screen. Data for the sgs1 mgt1 strain (AID 161);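 also: 0% = growth of cultures given vehicle only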
Conditions: S. cerevisiae sgs1 mgt1 strain, at 50.0 µM, hits give high values
Description: Growth inhibition of yeast strains with defined genetic alterations is measured as a screen for potential anti-cancer activity. Selected strains with alterations in DNA damage repair or cell cycle control were exposed to compounds and growth inhibition was measured relative to vehicle treated controls. The strain used in this assay is sgs1 mgt1
This is part of a sample that, as a whole, favours compounds with a hit. Of some 79,000 tested, about 15% had one in any assay.
READOUT_KIND: growth inhibition (%)
Please give a number only; it is taken to be in %.

Please review the following examples before continuing.
COCC(=O)CP(=O)(OC)OC | -11.6
O=[N+]([O-])c1ccc2nc(-c3ccc(S(=O)(=O)F)cc3)cc(Cl)c2c1 | 4.45

Turning now to a further record.
Which value of growth inhibition has been reported for CCC[As](=O)(O)c1ccc(Cl)cc1 in the records? 99.2

* * *

Test: NCI Yeast Anticancer Drug Screen. Data for the sgs1 mgt1 strain (AID 161);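 also: 0% = growth of cultures given vehicle only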
Conditions: S. cerevisiae sgs1 mgt1 strain, at 50.0 µM, hits give high values
The panel holds about 79,000 compounds, 15% with a hit somewhere; the sample as a whole holds those more often.
READOUT_KIND: growth inhibition (%)
Return type: number; implicit unit %.

Illustrative cases are given below, each with its answer.
[C-]#[O+].[C-]#[O+].[C-]#[O+].[CH3][Sn]([c]1ccccc1)[c]1ccccc1.[W].[c-]1[c-][c-][cH-][c-]1 | 98.5
C=[CH][Sn]([Cl])([Cl])[CH]=C.CN(C)P(=O)(N(C)C)N(C)C | 44.4
c1ccc(-c2cc(-c3ccccc3)c(OOc3c(-c4ccccc4)cc(-c4ccccc4)cc3-c3ccccc3)c(-c3ccccc3)c2)cc1 | -0.95
NCCN.O=C([O-])[O-].O=C([O-])[O-].[Co+3].[K+] | 5.2
C[As](C)(=S)[As](C)(C)=S | 65.2
COc1ccc(NC(=O)COc2cccc(Cl)c2)cc1S(=O)(=O)F | 14.4
CCC(C)(Cl)c1ccccc1 (centres undefined) | -13.6
CN(C)c1ccc(C=C2C(=O)NC(=O)NC2=O)cc1 | 19.1
CCN(CC)CCn1c(=O)c2ccccc2n(CCN(CC)CC)c1=O | 22.5
CCOC(OC1=C(C#N)CCCC1)C(C)[Se]c1ccccc1 (centres undefined) | 54.2

Now examine the next entry.
So what's the measured growth inhibition for this one? C1CCC(N([P-]P([P-]N(C2CCCCC2)C2CCCCC2)N(C2CCCCC2)C2CCCCC2)C2CCCCC2)CC1.[C-]#[O+].[C-]#[O+].[C-]#[O+].[C-]#[O+].[C-]#[O+].[C-]#[O+].[Fe].[Fe] (centres undefined) -23.2

* * *

In this section, each of the molecules is paired with its reported growth inhibition.
Experiment: NCI Yeast Anticancer Drug Screen. Data for the rad50 strain (AID 155);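 also: 0% = growth of vehicle-only cultures of the same strain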
Conditions: S. cerevisiae rad50 strain growth inhibition; at 50.0 µM; hits give high values
The panel holds about 79,000 compounds, 15% with a hit somewhere; the sample as a whole holds those more often.
Entry rule: numbers only, all in %.

Check out these entries, answers already filled in.
C#C[C@]1(O)CC[C@H]2[C@@H]3CCC4=C/C(=N/OC(=O)c5cccc6c(=O)c7ccccc7[nH]c56)CC[C@@H]4[C@H]3CC[C@@]21C | 1.6
COC12c3ccccc3-c3ccccc3C1[C@@H](C(=O)O)[C@H]2C(=O)O (stereo partly specified) | 11.2
NC(=O)c1cc([N+](=O)[O-])cc([N+](=O)[O-])c1N(CCCl)CCCl | -3
O=[N+]([O-])c1ccc(N2CC2)c([N+](=O)[O-])c1 | 1.85
O=C(CBr)OCCCS(=O)(=O)O | -24.9
O=[N+]([O-])c1ccc(SN2C3CCCCC32)c([N+](=O)[O-])c1 (stereo unspecified) | 3.85
CN(C)C(=O)Sc1cc(Cl)c(S(=O)(=O)F)cc1Cl | 9.45
CC(CCC#N)([N+](=O)[O-])[N+](=O)[O-] | 17.1
O=C(O)CCc1ccc(NP(=O)(Oc2ccccc2)N(CCCl)CCCl)cc1 (stereo unspecified) | 8.05
O=C(O)CNCP(=O)(O)O | -31.4

Which measured growth inhibition value corresponds to CC(C)CC(NC(=O)CF)C(=O)O (stereo unspecified) ? 3.45

* * *

Assay: NCI Yeast Anticancer Drug Screen. Data for the mec2-1 strain (AID 157)
Details: S. cerevisiae mec2-1 strain, at 50.0 µM, hits give high values
The panel holds about 79,000 compounds, 15% with a hit somewhere; the sample as a whole holds those more often.
READOUT_KIND: growth inhibition (%)
Write down the numeric answer in % and omit the unit.

Sample records with growth inhibition:
Cc1ccccc1NC(N)=S | 9.15
COc1ccc(CCN2CCOCC2)cc1 | 2.15
CC([NH-])C[NH-].CC([NH-])C[NH-].[Cl-].[Cl-].[Co+3].[O-][Cl+3]([O-])([O-])O (centres undefined) | 12.6
CCN(CC)CCc1ccncc1 | 10.1
Brc1ccc(C[N+]23CCN(CC2)CC3)cc1 | -35.1

Turning to the following compound.
Name the reported growth inhibition value associated with the compound c1ccc(NC2CCN(C3(c4ccccc4)CCCCC3)CC2)cc1 -6.8

* * *

Assay: NCI Yeast Anticancer Drug Screen. Data for the mlh1 rad18 strain (AID 175)
Conditions: S. cerevisiae mlh1 rad18 strain growth inhibition; at 50.0 µM; hits give high values
Compounds without any hit were thinned out: in the full panel of roughly 79,000, 15% have a hit.
Below, each of the molecules is paired with its reported growth inhibition value.
I only need the number, in %, no unit after it.

Recorded growth inhibition, per entry:
c1ccc(C2(N3CCOCC3)CSC2)cc1 | -6.75
COc1ccc(OC)c(CCc2cc(OC)ccc2OC)c1 | -28
S=P(NCc1cccc(CNP(=S)(N2CC2)N2CC2)c1)(N1CC1)N1CC1 | 9.4
CC(Cl)CN(CC(C)Cl)c1ccc2c(c1)Cc1cc([N+](=O)[O-])ccc1-2 (configuration not stated) | 12.7
O=[C-]/C=C/c1ccccc1.[C-]#[O+].[C-]#[O+].[Fe+2].[c-]1ccccc1 | 7.15

Would you kindly share the measured growth inhibition for CCN(CC)/C(=C\Cl)Nc1ccccn1 ? -2.45

And for O=C(CCN1CC=C(c2ccccc2)CC1)NCc1ccccc1 ? 8.55

Next molecule up: C#CCN(C)C(=O)N(CC#C)N=O -23.4
